# Tested on: Saccharomyces cerevisiae
# Test name: Antifungal activity against Saccharomyces cerevisiae assessed as inhibition of fungal growth incubated for 24 hrs by agar well diffusion method; note: test concentration or dose not given here
# Format: functional
Calls of active or inactive are those of the source. No cut-off for these calls is given here.
Quantity measured: diameter of the inhibition zone (DIZ)

>>> print(df.to_string())
                                 smiles_repr  recorded_result
 0      Fc1ccccc1-n1cc(COc2ccc3c(c2)CCC3)nn1            10 mm
 1  O=C(Cn1cc(COc2ccc3c(c2)CCC3)nn1)Nc1ccccc1            12 mm
 2    Cc1cccc(-n2cc(COc3ccc4c(c3)CCC4)nn2)c1            13 mm
 3  Cc1ccc(NC(=O)Cn2cc(COc3ccc4c(c3)CCC4)nn2)c(C)c1         inactive
 4  O=C(Cn1cc(COc2ccc3c(c2)CCC3)nn1)Nc1ccc(Br)cc1            12 mm
 5  Cc1cc([N+](=O)[O-])ccc1NC(=O)Cn1cc(COc2ccc3c(c2)CCC3)nn1         inactive
 6   Brc1ccc(-n2cc(COc3ccc4c(c3)CCC4)nn2)cc1             7 mm
 7  COc1ccc(NC(=O)Cn2cc(COc3ccc4c(c3)CCC4)nn2)cc1         inactive
 8  O=C(Cn1cc(COc2ccc3c(c2)CCC3)nn1)Nc1cccc(Cl)c1             5 mm
 9  COc1ccccc1NC(=O)Cn1cc(COc2ccc3c(c2)CCC3)nn1            10 mm
10  COc1cccc(NC(=O)Cn2cc(COc3ccc4c(c3)CCC4)nn2)c1         inactive

----------
# Study target: UniProtKB P9WGR1
# Sequence (P9WGR1 whole entry): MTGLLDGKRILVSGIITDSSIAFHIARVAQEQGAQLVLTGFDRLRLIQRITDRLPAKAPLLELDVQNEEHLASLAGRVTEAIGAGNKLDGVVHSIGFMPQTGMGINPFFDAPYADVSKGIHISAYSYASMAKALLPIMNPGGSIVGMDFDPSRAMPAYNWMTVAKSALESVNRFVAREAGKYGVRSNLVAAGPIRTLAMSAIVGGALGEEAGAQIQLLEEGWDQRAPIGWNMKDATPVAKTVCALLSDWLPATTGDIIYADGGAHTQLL
# Test name: Inhibition of InhA in Mycobacterium tuberculosis H37Rv assessed antitubercular activity by measuring inhibition of bacterial growth incubated for 7 days by MABA assay
# Condition context: time 7.0 day
Listing: MIC of selected compounds
Quantity measured: MIC (µM)

In [3]: df
Out[3]:
                                 smiles_repr  unit_name  op  recorded_result
 0  Cc1ccc(NC(=O)Cn2cc(COc3ccc4c(c3)CCC4)nn2)c(C)c1         µM   >               25
 1  O=C(Cn1cc(COc2ccc3c(c2)CCC3)nn1)Nc1ccc(Br)cc1         µM   >               25
 2              CC[C@@H](CO)NCCN[C@@H](CC)CO         µM   =             3.12
 3  Cc1cc([N+](=O)[O-])ccc1NC(=O)Cn1cc(COc2ccc3c(c2)CCC3)nn1         µM   >               25
 4  O=C(Cn1cc(COc2ccc3c(c2)CCC3)nn1)Nc1cccc(Cl)c1         µM   >               25
 5   COc1cccc(-n2cc(COc3ccc4c(c3)CCC4)nn2)c1         µM   =             12.5
 6      Fc1ccccc1-n1cc(COc2ccc3c(c2)CCC3)nn1         µM   =             6.25
 7  Cc1cc(C)c(-n2cc(COc3ccc4c(c3)CCC4)nn2)c(C)c1         µM   =             6.25
 8   COc1ccc(-n2cc(COc3ccc4c(c3)CCC4)nn2)cc1         µM   =               25
 9  O=C(Cn1cc(COc2ccc3c(c2)CCC3)nn1)Nc1ccc(Cl)cc1         µM   >               25
10  O=C(Cn1cc(COc2ccc3c(c2)CCC3)nn1)Nc1ccccc1Cl         µM   >               25

----------
# Tested on: Bacillus cereus
# Test name: Antibacterial activity against Bacillus cereus assessed as inhibition of bacterial growth incubated for 24 hrs by agar well diffusion method; note: test concentration or dose not given here
# Format: functional
Activity calls are given as the source filed them. The calls are words filed in the database; no cut-off is given here.
Quantity measured: diameter of the inhibition zone (DIZ)

>>> df
                                 smiles_repr  recorded_result
 0  Cc1cc([N+](=O)[O-])ccc1NC(=O)Cn1cc(COc2ccc3c(c2)CCC3)nn1         inactive
 1   Brc1cccc(-n2cc(COc3ccc4c(c3)CCC4)nn2)c1            10 mm
 2    Cc1ccc(-n2cc(COc3ccc4c(c3)CCC4)nn2)cc1         inactive
 3  O=C(Cn1cc(COc2ccc3c(c2)CCC3)nn1)Nc1ccc(Cl)cc1         inactive
 4   COc1ccc(-n2cc(COc3ccc4c(c3)CCC4)nn2)cc1             5 mm
 5  O=C(Cn1cc(COc2ccc3c(c2)CCC3)nn1)Nc1ccccc1            12 mm
 6  Cc1ccc(NC(=O)Cn2cc(COc3ccc4c(c3)CCC4)nn2)c(C)c1         inactive
 7  Cc1ccc(NC(=O)Cn2cc(COc3ccc4c(c3)CCC4)nn2)cc1         inactive
 8   CCc1ccc(-n2cc(COc3ccc4c(c3)CCC4)nn2)cc1         inactive
 9  CCc1ccc(NC(=O)Cn2cc(COc3ccc4c(c3)CCC4)nn2)cc1         inactive
10  Cc1ccc([N+](=O)[O-])cc1NC(=O)Cn1cc(COc2ccc3c(c2)CCC3)nn1         inactive

----------
# System: Saccharomyces cerevisiae
# Test name: Antifungal activity against Saccharomyces cerevisiae assessed as inhibition of fungal growth incubated for 24 hrs by agar well diffusion method; note: test concentration or dose not given here
# Type: functional
Activity calls are given as the source filed them. No cut-off for these calls is given here.
Quantity measured: diameter of the inhibition zone (DIZ)

>>> df
                                 smiles_repr              study_target  recorded_result
 0   COc1cccc(-n2cc(COc3ccc4c(c3)CCC4)nn2)c1  Saccharomyces cerevisiae         inactive
 1  Cc1ccc([N+](=O)[O-])cc1-n1cc(COc2ccc3c(c2)CCC3)nn1  Saccharomyces cerevisiae             6 mm
 2  O=[N+]([O-])c1cccc(-n2cc(COc3ccc4c(c3)CCC4)nn2)c1  Saccharomyces cerevisiae             7 mm
 3  Cc1ccc(NC(=O)Cn2cc(COc3ccc4c(c3)CCC4)nn2)cc1  Saccharomyces cerevisiae         inactive
 4   COc1ccc(-n2cc(COc3ccc4c(c3)CCC4)nn2)cc1  Saccharomyces cerevisiae             5 mm
 5  CCc1ccc(NC(=O)Cn2cc(COc3ccc4c(c3)CCC4)nn2)cc1  Saccharomyces cerevisiae         inactive
 6    Cc1ccc(-n2cc(COc3ccc4c(c3)CCC4)nn2)cc1  Saccharomyces cerevisiae         inactive
 7     Brc1ccccc1-n1cc(COc2ccc3c(c2)CCC3)nn1  Saccharomyces cerevisiae            10 mm
 8  Cc1ccc(-n2cc(COc3ccc4c(c3)CCC4)nn2)c(C)c1  Saccharomyces cerevisiae            12 mm
 9  O=C(Cn1cc(COc2ccc3c(c2)CCC3)nn1)Nc1cccc([N+](=O)[O-])c1  Saccharomyces cerevisiae             9 mm
10     COc1ccccc1-n1cc(COc2ccc3c(c2)CCC3)nn1  Saccharomyces cerevisiae         inactive
11   Clc1ccc(-n2cc(COc3ccc4c(c3)CCC4)nn2)cc1  Saccharomyces cerevisiae             8 mm
12  Cc1cc(C)c(-n2cc(COc3ccc4c(c3)CCC4)nn2)c(C)c1  Saccharomyces cerevisiae         inactive
13  Cc1ccccc1NC(=O)Cn1cc(COc2ccc3c(c2)CCC3)nn1  Saccharomyces cerevisiae         inactive
14        OC(Cn1cncn1)(Cn1cncn1)c1ccc(F)cc1F  Saccharomyces cerevisiae            30 mm

----------
# Test system: Shigella boydii
# Test name: Antibacterial activity against Shigella boydii assessed as inhibition of bacterial growth incubated for 24 hrs by agar well diffusion method; for DIZ: test concentration or dose not given here
# Assay type: functional
Calls of active or inactive are those of the source. No cut-off for these calls is given here.
Quantity measured: diameter of the inhibition zone (DIZ)

                                 smiles_repr  recorded_result
 0  O=C(Cn1cc(COc2ccc3c(c2)CCC3)nn1)Nc1ccccc1            11 mm
 1   Clc1ccc(-n2cc(COc3ccc4c(c3)CCC4)nn2)cc1         inactive
 2   COc1ccc(-n2cc(COc3ccc4c(c3)CCC4)nn2)cc1            11 mm
 3      Fc1ccccc1-n1cc(COc2ccc3c(c2)CCC3)nn1         inactive
 4  Cc1ccc([N+](=O)[O-])cc1NC(=O)Cn1cc(COc2ccc3c(c2)CCC3)nn1             9 mm
 5  CN(C)[C@@H]1C(O)=C(C(N)=O)C(=O)[C@@]2(O)C(O)=C3C(=O)c4c(O)cccc4[C@@](C)(O)[C@H]3C[C@@H]12            34 mm
 6   Brc1cccc(-n2cc(COc3ccc4c(c3)CCC4)nn2)c1            20 mm
 7  Cc1ccc([N+](=O)[O-])cc1-n1cc(COc2ccc3c(c2)CCC3)nn1            11 mm
 8   CCc1ccc(-n2cc(COc3ccc4c(c3)CCC4)nn2)cc1         inactive
 9  COc1ccc(NC(=O)Cn2cc(COc3ccc4c(c3)CCC4)nn2)cc1         inactive
10  COc1ccccc1NC(=O)Cn1cc(COc2ccc3c(c2)CCC3)nn1            12 mm
11  O=[N+]([O-])c1cccc(-n2cc(COc3ccc4c(c3)CCC4)nn2)c1            10 mm
12  O=C(Cn1cc(COc2ccc3c(c2)CCC3)nn1)Nc1ccc(F)cc1            11 mm
13     Brc1ccccc1-n1cc(COc2ccc3c(c2)CCC3)nn1            12 mm
14  O=C(Cn1cc(COc2ccc3c(c2)CCC3)nn1)Nc1ccc(Br)cc1            13 mm
15    Cc1cccc(-n2cc(COc3ccc4c(c3)CCC4)nn2)c1         inactive
16  COc1cccc(NC(=O)Cn2cc(COc3ccc4c(c3)CCC4)nn2)c1            15 mm
17  Cc1cc(C)c(-n2cc(COc3ccc4c(c3)CCC4)nn2)c(C)c1         inactive
18  Cc1ccc(NC(=O)Cn2cc(COc3ccc4c(c3)CCC4)nn2)c(C)c1            13 mm
19  O=C(Cn1cc(COc2ccc3c(c2)CCC3)nn1)Nc1cccc(Cl)c1            11 mm
20  O=C(Cn1cc(COc2ccc3c(c2)CCC3)nn1)Nc1cccc([N+](=O)[O-])c1            10 mm

These data points were gathered from ChEMBL document CHEMBL4699525.
